The measured values listed here are drawn from ChEMBL document CHEMBL3045012.

Tested on: Mycobacterium tuberculosis
experiment: Antituberculosis activity against Mycobacterium tuberculosis H37Rv assessed as growth inhibition after 12 to 28 days by L-J MIC method
Format: functional
measure: growth inhibition (GI) (%)
Kindly answer with a numeric value in %, unit omitted.

- molecule: "Cc1cnc(N2C(=O)CSC2c2cc3ccccc3nc2Cl)s1 (stereo unspecified)"
  numeric readout: 98
- molecule: "O=C1C(Cl)C(c2cc3ccccc3nc2Cl)N1c1cccc([N+](=O)[O-])c1 (stereo unspecified)"
  numeric readout: 93
- molecule: "O=C1CSC(c2cc3ccccc3nc2Cl)N1c1ccccc1[N+](=O)[O-] (stereo unspecified)"
  numeric readout: 93
- molecule: "O=C1C(Cl)C(c2cc3ccccc3nc2Cl)N1c1ccc([N+](=O)[O-])cc1 (stereo unspecified)"
  numeric readout: 96
- molecule: "O=C1CSC(c2cc3ccccc3nc2Cl)N1c1ccccc1 (stereo unspecified)"
  numeric readout: 92

Determine reported growth inhibition (GI) for O=C1C(Cl)C(c2cc3ccccc3nc2Cl)N1c1cccc(Cl)c1 (stereo unspecified) ; test system: Mycobacterium tuberculosis. 98

Determine reported growth inhibition (GI) for O=C1C(Cl)C(c2cc3ccccc3nc2Cl)N1c1ccccc1[N+](=O)[O-] (stereo unspecified) ; test system: Mycobacterium tuberculosis. 92

Determine reported growth inhibition (GI) for Cc1ccccc1N1C(=O)C(Cl)C1c1cc2ccccc2nc1Cl (stereo unspecified) ; test system: Mycobacterium tuberculosis. 91

Determine reported growth inhibition (GI) for O=C1C(Cl)C(c2cc3ccccc3nc2Cl)N1c1ccc(F)cc1 (stereo unspecified) ; test system: Mycobacterium tuberculosis. 98

Determine reported growth inhibition (GI) for Cc1ccc(N2C(=O)C(Cl)C2c2cc3ccccc3nc2Cl)cc1 (stereo unspecified) ; test system: Mycobacterium tuberculosis. 94

Determine reported growth inhibition (GI) for Cc1cnc(N2C(=O)C(Cl)C2c2cc3ccccc3nc2Cl)s1 (stereo unspecified) ; test system: Mycobacterium tuberculosis. 99

Determine reported growth inhibition (GI) for CC[C@@H](CO)NCCN[C@@H](CC)CO ; test system: Mycobacterium tuberculosis. 99

Determine reported growth inhibition (GI) for O=C1CSC(c2cc3ccccc3nc2Cl)N1c1ccccc1Cl (stereo unspecified) ; test system: Mycobacterium tuberculosis. 95

Determine reported growth inhibition (GI) for NC(=O)c1cnccn1 [PYRAZINAMIDE] ; test system: Mycobacterium tuberculosis. 99

Determine reported growth inhibition (GI) for O=C1CSC(c2cc3ccccc3nc2Cl)N1c1cccc(Cl)c1 (stereo unspecified) ; test system: Mycobacterium tuberculosis. 97

Determine reported growth inhibition (GI) for Cc1ccccc1N1C(=O)CSC1c1cc2ccccc2nc1Cl (stereo unspecified) ; test system: Mycobacterium tuberculosis. 90
